Test system: 407 cancer cell lines
Test: Cell viability of cancer cell lines (IC50), CellTiter-Glo Viability Assay, 96 h
Assay type: cell-based
Conditions: Homo sapiens, NCI-H23, 96 h, NCI-H23 cells, 96 h; read-out: Absolute IC50
observationType: IC50 (nM)

• Cc1nn(-c2nc(-c3ccc(C(F)(F)F)cc3)c(SC(C)C)s2)c(C(=O)O)c1-c1cccc(F)c1 = 760

###

System: 407 cancer cell lines
Assay: Cell viability of cancer cell lines (IC50), CellTiter-Glo Viability Assay, 96 h
Format: cell-based
Conditions: HBL-1; read-out: Absolute IC50
pIC50: −log10 of the molar value.
observationType: pIC50

• N.N.[Cl][Pt][Cl] [Cisplatin, reference compound] = 5.92
